test: Oral bioavailability in cynomolgus monkey at 5 mg/kg; format: ADME, organism-based, Macaca fascicularis; details: in vivo
experimental-endpoint: bioavailability (%)
Numbers only; they are read as %.

Report bioavailability for Cc1cc(CNC(=O)c2nc3n(c(=O)c2O)CC2CCC3(NC(=O)C(=O)N(C)C)CC2)ccc1F
23

---

test system: Human immunodeficiency virus 1; experiment: Antiviral activity against wild type HIV1 in presence of 10% FBS; format: functional, organism-based
experimental-endpoint: pEC50
Reminder that pEC50 is minus the log10 of a molar concentration.

Report pEC50 for Cc1cc(F)ccc1CNC(=O)c1nc2n(c(=O)c1O)CC1CCC2(NC(=O)C(=O)N(C)C)CC1
8.89

Report pEC50 for CN(C)C(=O)C(=O)NC12CCC(Cn3c1nc(C(=O)NCc1ccc(F)cc1)c(O)c3=O)C2 (centres undefined)
8.70

Report pEC50 for CNC(=O)c1cc(F)ccc1CNC(=O)c1nc2n(c(=O)c1O)CC1CCC2(NC(=O)C(=O)N(C)C)CC1
7.22

Report pEC50 for CN(C)C(=O)C(=O)NC12CCC(CC1)Cn1c2nc(C(=O)NCc2ccc(F)c(F)c2)c(O)c1=O
9.15

---

assay: Half life in Sprague-Dawley rat at 1 mg/kg, iv measured up to 4 hrs; assay type: ADME, organism-based; conditions: in vivo
experimental-endpoint: half-life (h)
Numbers only; they are read as h.

Report half-life for Cc1cc(CNC(=O)c2nc3n(c(=O)c2O)CC2CCC3(NC(=O)C(=O)N(C)C)CC2)ccc1F
12.3

---

system: Human immunodeficiency virus 1; assay: Antiviral activity against HIV1 harboring G140S/Q148H double mutant in presence of 10% FBS; type: functional, organism-based
For each of the molecules below, state its log10(EC50).
Remember, log10 of EC50, in µM.

Under Human immunodeficiency virus 1, report log10(EC50) for Cc1cc(CNC(=O)c2nc3n(c(=O)c2O)CC2CCC3(NC(=O)C(=O)N(C)C)CC2)ccc1F
-2.52

Under Human immunodeficiency virus 1, report log10(EC50) for CN(C)C(=O)C(=O)NC12CCC(CC1)Cn1c2nc(C(=O)NCc2ccc(F)c(F)c2)c(O)c1=O
-1.77

Under Human immunodeficiency virus 1, report log10(EC50) for CN(C)C(=O)C(=O)NC12CCC(CC1)Cn1c2nc(C(=O)NCc2ccc(F)c(C(F)(F)F)c2)c(O)c1=O
-1.49

Under Human immunodeficiency virus 1, report log10(EC50) for CN(C)C(=O)NC12CCC(CC1)Cn1c2nc(C(=O)NCc2ccc(F)cc2)c(O)c1=O
-0.44

Under Human immunodeficiency virus 1, report log10(EC50) for CN(C)C(=O)C(=O)NC12CCC(CC1)Cn1c2nc(C(=O)NCc2ccc(F)c(Cl)c2)c(O)c1=O
-2.22

Under Human immunodeficiency virus 1, report log10(EC50) for CN(C)C(=O)C(=O)NC12CCC(Cn3c1nc(C(=O)NCc1ccc(F)cc1)c(O)c3=O)C2 (stereo not drawn)
-1.41

Under Human immunodeficiency virus 1, report log10(EC50) for CN(C)C(=O)C(=O)NC12CCC(CC1)Cn1c2nc(C(=O)NCc2ccc(F)cc2Cl)c(O)c1=O
0.12

Under Human immunodeficiency virus 1, report log10(EC50) for CN(C)C(=O)C(=O)NC12CCC(CC1)Cn1c2nc(C(=O)NCc2ccc(F)cc2)c(O)c1=O
-2.00

Under Human immunodeficiency virus 1, report log10(EC50) for CC(C)C(=O)C(=O)NC12CCC(CC1)Cn1c2nc(C(=O)NCc2ccc(F)cc2)c(O)c1=O
-1.03

Under Human immunodeficiency virus 1, report log10(EC50) for CN(C)C(=O)C(=O)NC12CCC(CC1)Cn1c2nc(C(=O)NCc2ccc(F)cc2F)c(O)c1=O
-1.43

Under Human immunodeficiency virus 1, report log10(EC50) for Cc1cc(F)ccc1CNC(=O)c1nc2n(c(=O)c1O)CC1CCC2(NC(=O)C(=O)N(C)C)CC1
-0.25

---

assay: Cmax in Sprague-Dawley rat at 0.5 mg/kg, iv measured up to 4 hrs; assay type: ADME, organism-based; set-up: route intravenous, dose 0.5 mg/kg, time <=4; details: in vivo
experimental-endpoint: Cmax (nM)
Numbers only; they are read as nM.

Report Cmax for CN(C)C(=O)C(=O)NC12CCC(CC1)Cn1c2nc(C(=O)NCc2ccc(F)cc2)c(O)c1=O
1920

---

experiment: Binding affinity to wild type HIV1 integrase; design: species or system Human immunodeficiency virus 1
experimental-endpoint: Ki

Report Ki for CN(C)C(=O)C(=O)NC12CCC(CC1)Cn1c2nc(C(=O)NCc2ccc(F)cc2)c(O)c1=O
2 nM

Report Ki for Cc1cc(CNC(=O)c2nc3n(c(=O)c2O)CC2CCC3(NC(=O)C(=O)N(C)C)CC2)ccc1F
2 nM

---

biological target: Integrase (Human immunodeficiency virus 1, UniProt T1QYY3, G140S/Q148H); assay: Binding affinity to […] HIV1 integrase G140S/Q148H mutant
For each of the compounds below, state its Ki.
Numbers only; they are read as nM.

Report Ki for CN(C)C(=O)C(=O)NC12CCC(CC1)Cn1c2nc(C(=O)NCc2ccc(F)cc2)c(O)c1=O
17

Report Ki for Cc1cc(CNC(=O)c2nc3n(c(=O)c2O)CC2CCC3(NC(=O)C(=O)N(C)C)CC2)ccc1F
8

---

test: AUC in cynomolgus monkey at 5 mg/kg, po; format: ADME, organism-based, Macaca fascicularis; design: dose 5 mg/kg; settings: in vivo
experimental-endpoint: AUC (µM·h)
Numbers only; they are read as µM·h.

Report AUC for Cc1cc(CNC(=O)c2nc3n(c(=O)c2O)CC2CCC3(NC(=O)C(=O)N(C)C)CC2)ccc1F
2.89

---

experiment: Cmax in Sprague-Dawley rat at 1 mg/kg, iv measured up to 4 hrs; assay type: ADME, organism-based; parameters: route intravenous, dose 1 mg/kg, time <=4; conditions: in vivo
experimental-endpoint: Cmax (µM)
Numbers only; they are read as µM.

Report Cmax for Cc1cc(CNC(=O)c2nc3n(c(=O)c2O)CC2CCC3(NC(=O)C(=O)N(C)C)CC2)ccc1F
5.3

---

experiment: Volume of distribution at steady state in Sprague-Dawley rat at 1 mg/kg, iv measured up to 4 hrs; assay type: ADME, organism-based; settings: in vivo, read-out: Vdss
experimental-endpoint: Vd (L/kg)
Numbers only; they are read as L/kg.

Report Vd for Cc1cc(CNC(=O)c2nc3n(c(=O)c2O)CC2CCC3(NC(=O)C(=O)N(C)C)CC2)ccc1F
1.2

---

test system: Human immunodeficiency virus 1; assay: Antiviral activity against wild type HIV1 in presence of 10% FBS; format: functional, organism-based
For each of the molecules below, state its EC50.
Numbers only; they are read as nM.

Report EC50 for CCOC(=O)C(=O)NC12CCC(CC1)Cn1c2nc(C(=O)NCc2ccc(F)cc2)c(O)c1=O
21

Report EC50 for CN(C)C(=O)C(=O)NC12CCC(CC1)Cn1c2nc(C(=O)NCc2ccc(F)cc2F)c(O)c1=O
0.7

Report EC50 for CN(C)CC(=O)NC12CCC(CC1)Cn1c2nc(C(=O)NCc2ccc(F)cc2)c(O)c1=O
20

Report EC50 for CN(C)C(=O)C(=O)NC12CCC(CC1)Cn1c2nc(C(=O)NCc2ccc(F)cc2Cl)c(O)c1=O
1.3

Report EC50 for CN(C)C(=O)C(=O)NC12CCC(CC1)Cn1c2nc(C(=O)NCc2ccc(F)cc2)c(O)c1=O
1

Report EC50 for CN(C)C(=O)C(=O)NC12CCC(CC1)Cn1c2nc(C(=O)NCc2ccc(F)c(Cl)c2)c(O)c1=O
0.8

Report EC50 for CC(C)C(=O)C(=O)NC12CCC(CC1)Cn1c2nc(C(=O)NCc2ccc(F)cc2)c(O)c1=O
2

Report EC50 for CN(C)C(=O)C(=O)NC12CCC(CC1)Cn1c2nc(C(=O)NCc2ccc(F)cc2C(F)(F)F)c(O)c1=O
8

---

assay: AUC in Beagle dog at 5 mg/kg, po; assay type: ADME, organism-based, Canis lupus familiaris; parameters: dose 5 mg/kg; details: in vivo
experimental-endpoint: AUC (µM·h)
Numbers only; they are read as µM·h.

Report AUC for Cc1cc(CNC(=O)c2nc3n(c(=O)c2O)CC2CCC3(NC(=O)C(=O)N(C)C)CC2)ccc1F
20.8

---

assay: Clearance in Sprague-Dawley rat at 0.5 mg/kg, iv measured up to 4 hrs; assay type: ADME, organism-based; settings: in vivo
experimental-endpoint: clearance (mL/min/kg)
Numbers only; they are read as mL/min/kg.

Report clearance for CN(C)C(=O)C(=O)NC12CCC(CC1)Cn1c2nc(C(=O)NCc2ccc(F)cc2)c(O)c1=O
30.5

---

assay: Oral bioavailability in Beagle dog at 5 mg/kg; type: ADME, organism-based, Canis lupus familiaris; settings: in vivo
experimental-endpoint: bioavailability

Report bioavailability for Cc1cc(CNC(=O)c2nc3n(c(=O)c2O)CC2CCC3(NC(=O)C(=O)N(C)C)CC2)ccc1F
83%
